Listing of recorded IC50 by entry.
target: T1, human C-KIT-Fc (human, UniProt P10721 26-524); test: HTRF competition vs Tb-h37M IgG1
T1 construct: also called biotinylated human C-KIT-Fc; not shown: Fc part not described
Record the value in µg/mL, omitting the unit from your answer.

Examples from the recorded data:
BINDER: MH5.23 (antibody, IgG1, V domains shown, IgG1; also called C-KIT-MH5.23) VH: QVQLVQSGAEVKKPGASVKVSCKASGYTFTDFYMNWVRQAPGQGLEWMGRIYPASGNTYYAQKFQGRVTMTRDTSTSTVYMELSSLRSEDTAVYYCARGVWYFDSWGQGTLVTVSS VL: DIQMTQSPSSLSASVGDRVTITCRASQGIRTNLAWFQQKPGKAPKSLIYAASSLQSGVPSRFSGSGSGTDFTLTISSLQPEDFATYYCQQYANYPRTFGGGTKVEIK
IC50 / µg/mL: 2.02
//
BINDER: MH5.24 (antibody, IgG1, V domains shown, IgG1; also called C-KIT-MH5.24) VH: QVQLVQSGAEVKKPGASVKVSCKASGYTFTDFYMNWVRQAPGQGLEWMGRIYPASGNTYYAQKFQGRVTMTRDTSTSTVYMELSSLRSEDTAVYYCARGVWYFDTWGQGTLVTVSS VL: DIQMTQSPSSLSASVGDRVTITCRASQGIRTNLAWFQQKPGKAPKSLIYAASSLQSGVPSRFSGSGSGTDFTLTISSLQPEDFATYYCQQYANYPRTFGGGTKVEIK
IC50 / µg/mL: 2.2

Using the record for MH5, human IgG1 (antibody, V domains shown, IgG1; also called C-KIT-MH5; C-KIT-MHS) VH: QVQLVQSGAEVKKPGASVKVSCKASGYTFTDYYMNWVRQAPGQGLEWMGRIYPGSGNTYYAQKFQGRVTMTRDTSTSTVYMELSSLRSEDTAVYYCARGVYYYDYWGQGTLVTVSS VL: DIQMTQSPSSLSASVGDRVTITCRASQGIRTNLAWFQQKPGKAPKSLIYSASSLQSGVPSRFSGSGSGTDFTLTISSLQPEDFATYYCQQYANYPRTFGGGTKVEIK , report its IC50.
0.067
